# Target under test: High affinity nerve growth factor receptor (Homo sapiens, UniProt P04629)
# Sequence (P04629 whole entry): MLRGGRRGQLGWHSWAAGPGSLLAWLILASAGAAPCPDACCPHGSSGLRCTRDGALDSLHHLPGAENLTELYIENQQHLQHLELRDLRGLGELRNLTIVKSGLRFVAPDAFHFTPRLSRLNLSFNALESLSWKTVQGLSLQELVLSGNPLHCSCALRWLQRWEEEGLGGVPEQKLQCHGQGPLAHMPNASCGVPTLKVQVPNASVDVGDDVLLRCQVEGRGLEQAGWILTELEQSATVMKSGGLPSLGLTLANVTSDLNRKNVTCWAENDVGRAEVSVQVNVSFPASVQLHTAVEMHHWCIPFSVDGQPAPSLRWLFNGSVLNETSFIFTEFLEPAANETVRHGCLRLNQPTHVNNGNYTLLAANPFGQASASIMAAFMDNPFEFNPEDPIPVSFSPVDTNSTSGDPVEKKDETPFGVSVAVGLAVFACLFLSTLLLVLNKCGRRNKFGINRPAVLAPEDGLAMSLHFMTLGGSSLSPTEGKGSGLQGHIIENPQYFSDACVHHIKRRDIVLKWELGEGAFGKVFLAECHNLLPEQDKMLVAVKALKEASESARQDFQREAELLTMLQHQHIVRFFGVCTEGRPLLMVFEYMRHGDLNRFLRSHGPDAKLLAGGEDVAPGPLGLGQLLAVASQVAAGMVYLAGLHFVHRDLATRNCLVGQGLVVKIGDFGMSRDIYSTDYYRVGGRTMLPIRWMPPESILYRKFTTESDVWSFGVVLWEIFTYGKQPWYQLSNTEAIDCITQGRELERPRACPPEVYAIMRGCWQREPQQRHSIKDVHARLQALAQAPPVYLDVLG
# Experiment summary: Inhibition of human recombinant TrkA using ATP and 5FAM tagged TrkA peptide substrate incubated for 60 mins by microfluidics assay
pIC50: −log10 of the molar value.
Readout name: pIC50

INSERT INTO measurements (chemical_smiles, readout_name, measured_number) VALUES
  ('Cn1nc(C(C)(C)C)cc1NC(=O)Nc1cccc(Oc2cncc(-c3ccc(S(C)(=O)=O)cc3)n2)c1', 'pIC50', 6.31),
  ('CC(C)(C)c1cc(NC(=O)Nc2cccc(Oc3cncc(-c4ccc(F)cc4)n3)c2)no1', 'pIC50', 7.66),
  ('COc1ccc(-c2cncc(Oc3cccc(NC(=O)Nc4cccc(C(F)(F)F)c4)c3)n2)cc1', 'pIC50', 5.80),
  ('CS(=O)(=O)c1ccc(-c2cncc(Oc3cccc(NC(=O)Nc4cccc(C(F)(F)F)c4)c3)n2)cc1', 'pIC50', 5.77);
